- METHOD: yeast display, Sf9 membrane polyspecificity reagent, FACS + sequencing; frameworks hold sequencing errors
ENDPOINT_LABEL: polyreactivity (PSR sort gate)

// solved cases for polyreactivity (PSR sort gate) follow
QVQLVESGGRLVQAGGSLRLSCAASGFTFPTYAMGWYRQAPGKERELVAAITRGGSTYYADSVKGRFTISRDNAKNTVYLQMNSLKPEDTAVYYCAADDPWYEEDYWGQGTQVTVSS ... low polyreactivity
QVQLVESGGGLVQAGGSLRLTCAASGIIFGKYTMGWYRPAPGKERELVADISKRGGSTYYADSVKGRFTISRDHAKNTVYLQMNSLKPEDTAVYNCAAERISSYDYWGQGTQVTVSS ... high polyreactivity
QVQLPGSGGGLVQAGGSLRLSCAASGYIFQNVPMGWTRQAPGKERDLVAGIDNGTSTNYADSVNGRFTISRDNAKNTVYLQMNSLKPEDTAVYYCAAAGQADDTLGYWGQGTQVTVSS ... low polyreactivity
QVQLVESGGGLVQAGGSLRLSCAASGITFFLYAMGWYRQAPGKERELVAVISASGGSTYYADSVKGRFTISRDNAKNTVYLQMNSLKPEDTAVYYCAAGYRFYGFYALYYWGQGTQVTVSS ... high polyreactivity
QVQLVESGGGLVQAGGSLRLSCAASGIIFGIYDMGWSRQAPGKERELVAAIRRSGGSTYYADSVKGRFTISRDNAKNTVYLQMNSLKPEDTAVYYCAATRHSRVRGGDYWGQGTQVTVSS ... low polyreactivity
QVQLVESRGGLVQAGGSLRLSCAASGFTFSAYAMGWYRQAPGKERELVAAISWSGSRTYYADSVKGRFTISRDNAKNTVYLQMNSQKPEDTAVYYCAKEPYDTFGFYDYDYWGQGTQVTVSS ... low polyreactivity

## Task # lookup: polyreactivity (PSR sort gate) of `QVQLVESGGGLVQAGGSLRLSCAASGITFRYYAMGWYRQAPGKERELVAAISSTGGSTYYADSVKGRFTISRDNAKNTVYLQMNSLKPEDTAVYYCNADTTFYGYRTYRPENYWGQGTQVTVSS`
## Result high polyreactivity

## Task # lookup: polyreactivity (PSR sort gate) of `QVQLVESGGGLVQAGGSLRLSCAASGFTFIYYAMGWYRQAPGKERELVAAITSGGNTYYADSVKGRFTISRDNAKNTVYFQMNSLKPEDTAVYYCNKVPHREWVGGYDYWGQGTQVTVSS`
## Result low polyreactivity

## Task # lookup: polyreactivity (PSR sort gate) of `QVQLVESGGGLVQAGGSLRLSCAASGSTFNYYAMGWYRQAPGKERELVAAIDWSGGSTYYADSVKGRFTISRDNAKNTVYLQMNSLKPEDTAVYYCAARTYDYSYRSYDYWGQGTQVTVSS`
## Result low polyreactivity

## Task # lookup: polyreactivity (PSR sort gate) of `QVQIVESGGGLVQAGGILRLSCAASGITFTSYAMGWYRQAPGKEREFVAAISWSGDRTYYADSVKGRFTISRDNAKNTVYLQMICLKPEETAVYYCNAYIYFSAYDPDYYWGQGTQVTVSS`
## Result high polyreactivity

## Task # lookup: polyreactivity (PSR sort gate) of `QVQLVESGGGLVQAGGSLRLSCAASGIIFYKYAMGWKRQGPGKERELVAAITSGGRRTYYADSVKGRFTISRDNAKNTVYLLMNSLKPEDTEAFYCAARFSYPWLYLFVYWGQVTQVTVSS`
## Result high polyreactivity

## Task # lookup: polyreactivity (PSR sort gate) of `QVQLVESGGRLVQAGGSLRLSCAASGSTFTKYALGWYRPAPGKERELVAAISRSGGSTYYADSVKGRFSISRDNAKNTVYLQMNSLKPEDTAVYYCAARDSSRNYFGDGARDYWGQCTQVTVSS`
## Result high polyreactivity

## Task # lookup: polyreactivity (PSR sort gate) of `QVQLVESGGGLVQAGGSLRLSCAASGSIFSTNAMGWYRQAPGKERELVAGISSDDSTYADSVKGRFTISRDNAKNTVYLQMNSLKQADTAVYYCAAEDNWYNVGYYYWGQGTQVTVSS`
## Result low polyreactivity

## Task # lookup: polyreactivity (PSR sort gate) of `HVQLVESGVGLVQAAGILRLSCAASGRTFSVYVMGWYRQATGKERELVAAISTSGARTYYADSVKGRFTISRDHAKNTVFLQMNSLKPEATAVYYCGARAIYKSKYDYWGHGTQVTVSS`
## Result high polyreactivity

## Task # lookup: polyreactivity (PSR sort gate) of `QVQLVESGGGLVQAGGSLRLSCAASGVTFESYDMGWYRQAHGKERELVAAITWDGGSTYYADSVKGRFTISRDNAKNTVYLQMNSLKPEDTAVYYCAADFGTISIDVYSWMDYWGQGTQVTVSS`
## Result low polyreactivity

###

- METHOD: yeast display, Sf9 membrane polyspecificity reagent, FACS + sequencing; frameworks hold sequencing errors
ENDPOINT_LABEL: polyreactivity (PSR sort gate)

// solved cases for polyreactivity (PSR sort gate) follow
QVQLVESGGGLVQAGGSLRLSCAASGSIFSSYVMGWYRQAPGKERELVAAMSRSGGSTYYADSVKGRFTISRDNAKNTVYLQMNSLKPEDTAVYYCAADWTRGSPGMDYWGQGTQVTVSS ... high polyreactivity
QVQLVESGGGLVQAGGSLRLSCAASGIIFDYNAMGWYRQAPGKERELVAAISGRSGRTYYADSVKGRFTISRDNAKNTVYLQMNSLKPEDTAVYYCNALRLTRDPYDYWGQGTQVTVSS ... high polyreactivity
QVQLVDSGGGLVQAGGRLRLSCAASGITFYYNAMGWYRQAPGKERELVATISSRGGSTYYADSVKGRFTISRDNAKNTVYLQMNSLKPEDTEVYYCNAGRSRYRWSTTGYTQVRDDYWGQATQVTVSS ... high polyreactivity
QVQLVESGGGLLQAGGSLRLSCADSGRTFCPNVMGCYRQAPGKERELVAAITWGDASTYYADSVKGRFTISRDNAKNTVYLQMNCLKPEDTAVYYCGAKSSTRGDYWGQGTQVTVSS ... low polyreactivity
QVQLVESGGGLVQAGGSLRLSCAASGRIFARKAMGRYRQAPGKEREWVATIRVGGGSTYYADSVKGRFTISRDNAKNTVYLQMNSLKPEDTAVYYFAVRQLYSYPGDRRGYDWGQGTQVTVSS ... low polyreactivity

## Task # lookup: polyreactivity (PSR sort gate) of `QVQLVESGGGLVQAGGSLRISCAASGRIFSYNAMGWYRQAPGKERELVASISRGGSTYADSVKGRFTISRDNAKNTVYLQMNRLQPADTAVYYCNAVHFSYEYDYWGQGTQVTVSS`
## Result high polyreactivity

## Task # lookup: polyreactivity (PSR sort gate) of `QVQLVESGGGLVQAGGSLRLSCAASGNIFRPYTMGWYRQAPGKERELVARISSGGSTNYADSVKGRFTISRDNGKYTDYFQLNSLKPEVTAVYYWSKRYGTVLSRYGYLGQGTQVTVSS`
## Result high polyreactivity

## Task # lookup: polyreactivity (PSR sort gate) of `QVQLVESGGGLVQAGGSLRLSCAASGSTYDDNAMGWYRQAPRKERELVAGISTNGGSTSYADSVKGRFTISRDNAKNTVYLQMNSLYPEDTAVYYCATGLYVQFDYWGQGTQVTVSS`
## Result low polyreactivity

## Task # lookup: polyreactivity (PSR sort gate) of `QVQLVESGGGLVQAGGSLRLSCAASGGIFYTYAMGWYRQAPGKERELVAGINWSGSSTYYADSVKGRFTISRDNAKNTVYLQMNSLKPEDTAVYYCAARSYSYSTGDYWGQGTQVTVSS`
## Result low polyreactivity

## Task # lookup: polyreactivity (PSR sort gate) of `QVQHVESGGGIVQAGGSLRLSCAASVRTIPYNAMGRYRQAPGKERELVAAISTGGSTNYADSVKGRFTISRDNAKNTVYLQMNSLKPEDTAVYYCNTRYRWARNWAYYYWGQGTQVTVSS`
## Result high polyreactivity

## Task # lookup: polyreactivity (PSR sort gate) of `QDQLVETGGGLVQAGGSLRLSCAASGRIFAYNSMGWYRQAPGKERELVAAISWSGSSTYYADSVKGRFTISRDNAKNTVYLHMNCLKPEDTAVYYCAATPWYYYSTSYAYYYWGQGTQVTVSS`
## Result high polyreactivity

###

- METHOD: yeast display, Sf9 membrane polyspecificity reagent, FACS + sequencing; frameworks hold sequencing errors
ENDPOINT_LABEL: polyreactivity (PSR sort gate)

QVQLVESGGGLVQAGGSLRLSCAASGRTFRAYVMGWYRQAPGKERELVAAFTGDGGSTYYADSVKGRFTISRDNAKNTVYLQMNSLKPEDTAVYYCAAGYVTVYGYYEYWGQGTQVTVSS ... high polyreactivity
QVQLVESGGGLVQAGGSLRLSCAASGRIFARYAMGWYRQAPGKERELVAAITGGGRTNYADSVKGRFTISRDNAKNTVYLQMNSLKPEDTAVYYCAADTGYQNGKGLGYQNFGGYYWGQGTQVTVSS ... high polyreactivity
